biological target: Androgen Receptor (AR) (Homo sapiens, UniProt P10275, T878A); construct: cell based immuno-fluorescence assay using the LNCaP prostate epithelial cell line; endogenous in cells; host or cells: LNCaP clone FGC (ATCC CRL-1740); test: LNCaP Androgen Receptor Down-regulation Cell Assay (immunofluorescence end point); type: cell-based; details: LNCaP prostate carcinoma cells, compound incubation 20-22 hours, 50% reduction of the AR signal; read-out: Androgen Receptor Down-regulation Assay (a) IC50/μM
Sequence (P10275 whole entry T878A): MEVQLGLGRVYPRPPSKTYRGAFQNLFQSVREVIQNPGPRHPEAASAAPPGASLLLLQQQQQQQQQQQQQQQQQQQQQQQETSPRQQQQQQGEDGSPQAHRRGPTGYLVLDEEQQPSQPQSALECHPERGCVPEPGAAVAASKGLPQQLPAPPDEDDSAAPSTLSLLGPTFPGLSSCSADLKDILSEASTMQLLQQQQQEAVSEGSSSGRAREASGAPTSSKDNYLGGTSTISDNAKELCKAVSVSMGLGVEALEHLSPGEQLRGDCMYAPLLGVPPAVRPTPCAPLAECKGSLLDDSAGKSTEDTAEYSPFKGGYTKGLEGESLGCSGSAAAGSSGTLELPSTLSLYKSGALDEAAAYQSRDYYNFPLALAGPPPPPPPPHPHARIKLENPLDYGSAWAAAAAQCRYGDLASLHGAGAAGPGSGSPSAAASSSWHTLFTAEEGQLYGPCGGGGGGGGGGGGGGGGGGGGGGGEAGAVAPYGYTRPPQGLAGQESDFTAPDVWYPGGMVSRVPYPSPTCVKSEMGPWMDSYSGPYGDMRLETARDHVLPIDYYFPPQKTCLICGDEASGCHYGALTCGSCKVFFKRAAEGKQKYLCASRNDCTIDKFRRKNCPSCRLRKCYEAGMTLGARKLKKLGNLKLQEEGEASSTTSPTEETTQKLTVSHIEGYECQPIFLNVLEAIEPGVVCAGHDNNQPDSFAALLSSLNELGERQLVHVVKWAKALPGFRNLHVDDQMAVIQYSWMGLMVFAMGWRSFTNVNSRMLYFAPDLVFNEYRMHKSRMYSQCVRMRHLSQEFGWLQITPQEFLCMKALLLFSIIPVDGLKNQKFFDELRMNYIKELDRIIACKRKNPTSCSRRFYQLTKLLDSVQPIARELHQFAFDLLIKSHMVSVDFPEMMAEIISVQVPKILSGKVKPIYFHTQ
So basically: is DC50 under 1 µM? Then y. Not under? Then n.

Example entries begin here.
FC(F)(F)c1ccc(OCC2CCN(c3ccc4nnc(C(F)(F)F)n4n3)CC2)cc1 [Example 468]
n
CCS(=O)(=O)c1ccc(CN2CCN(c3ccc4nnc(C(F)(F)F)n4n3)CC2)cc1 [Example 135]
n

*Q* API: query returns whether the compound falls strictly under 1 µM in DC50. Query: C[C@@H]1CN(c2ccc3nnc(C(F)(F)F)n3n2)CCN1Cc1cccc(Br)n1 [Example 830]
*A* y

*Q* Likewise for O=C(c1ccc2[nH]cc(C3CCN(c4ccc5nnc(C(F)(F)F)n5n4)CC3)c2c1)N1CC[C@@H](O)C1 [Example 500] ?
*A* n

*Q* Same again, this time with FC(F)(F)c1nnc2ccc(N3CCC(c4cccc(OCCCN5CCNCC5)c4)CC3)nn12 [Example 673]
*A* y

*Q* Repeat for the following compound: N#Cc1ccc(OC2CCN(c3ccc4nnc(C(F)(F)F)n4n3)CC2)nc1 [Example 628]
*A* n

*Q* Would you kindly repeat that for Fc1ccc(OC2CCN(c3ccc4nnc(C(F)(F)F)n4n3)CC2)cc1 [Example 625] ?
*A* n

*Q* Now the same for COCCNC(=O)c1ccc(N2CCN(c3ccc4nnc(C(F)(F)F)n4n3)CC2)cc1 [Example 745]
*A* n
